Tested on: SF-295 CNS
Assay: NCI-60 one-dose screen, 48 h (100 = growth as untreated, 0 = no growth, -100 = all killed)
Conditions: 10 µM
Method: Cells are grown in 96 well plates and exposed to the test compound for 48 hours. Compounds are tested at a single concentration, which is 10^-5 M for most compounds. The reported endpoint is percent growth (GI% or GIPRCNT), where numbers from 0 - 100% represent growth inhibition, and numbers from -100% - 0 represent cell death. For example, a value of 40 represents 60% growth inhibition. A value of 0 means no net growth occurred over the course of the experiment. […]
Compounds without any hit were thinned out: in the full panel of roughly 83,000, 20% have a hit.
Binning rule for recorded growth: L: < 30%; M: ≥ 30% and < 90%; H: ≥ 90%

Reference set, count: 3
INSERT INTO measurements (molecule, category) VALUES
  ('O=C(O)c1ccc(Cl)cc1Nc1ccc(F)cc1', 'M'),
  ('COc1ccc(/C=C/C(C)=N/OCC(=O)O)cc1', 'H'),
  ('O=C(Nc1nc2ccc(F)cc2s1)c1cc(-c2ccc(F)cc2)n2nc(-c3ccccc3)cc2n1', 'H');

Exercise: Record NC1(C(=O)O)CSSC1 — which class?
Solution: M

Exercise: Record COc1cc(NC(=O)CCSc2nc3ccc(C)cc3c(=O)n2Cc2ccccc2)cc(OC)c1OC — which class?
Solution: M

Exercise: Record COc1ccc(/C=C2/CN(C(=O)c3ccccc3F)C/C(=C\c3ccc(OC)cc3)C2=O)cc1 — which class?
Solution: M

Exercise: Record COc1cc2c(cc1OCCCN1CCN(c3ncnc4ccccc34)CC1)N=CC1CCCN1C2=O (configuration not stated) — which class?
Solution: L

Exercise: Record O=C1OCC2=C1C(c1ccc(Cl)c(Cl)c1)c1cc3c(cc1N2CCO)OCCO3 (configuration not stated) — which class?
Solution: L

Exercise: Record Cn1c(C(N)=O)cc2c1-c1nc(Nc3ccccc3)ncc1CCC2 — which class?
Solution: M

Exercise: Record O=C(CNC(=O)OCc1ccccc1)NCC(=O)Oc1ccc([N+](=O)[O-])cc1 — which class?
Solution: H

Exercise: Record COc1ccc(/C=C2/CN(CCC#N)C/C(=C\c3ccc(OC)cc3)C2=O)cc1 — which class?
Solution: L

Exercise: Record O=C1CC[C@@H]2CCCC[C@@H]2C1 — which class?
Solution: H

Exercise: Record c1ccc2c(c1)oc1c3c(ccc12)NCCC3 — which class?
Solution: H

Exercise: Record COc1ccc(N2C(=O)C3c4[nH]c5ccc(OCc6ccccc6)cc5c4C4CCC(C(C)C)CC4C3C2=O)cc1 (configuration not stated) — which class?
Solution: H

Exercise: Record CN(Cc1ccccc1)Cc1ccc([N+](=O)[O-])cc1I — which class?
Solution: H

Exercise: Record Nc1c(C(=O)Nc2ccccc2)sc2nc3c(cc12)C(O)CCC3 (configuration not stated) — which class?
Solution: L

Exercise: Record CCCCCCN1CCN(Cc2ccc(N(CC)CC)cc2)C(=O)C1=O — which class?
Solution: L

Exercise: Record CC(C)=NNc1ncnc2c1ncn2C1OC(CO)C(O)C1O (configuration not stated) — which class?
Solution: L

Exercise: Record COc1ccc(/C(=C2\O[C@@H]([C@H]3COC(C)(C)O3)[C@H]3OC(C)(C)O[C@@H]23)c2cc(OC)c(OC)c(OC)c2)cc1O — which class?
Solution: M

Exercise: Record Clc1ccccc1N=Cc1ccc2c(c1)OCO2 — which class?
Solution: H

Exercise: Record O=C1/C(=C/c2ccc([N+](=O)[O-])s2)Oc2ccccc21 — which class?
Solution: L

Reference for the values: PubChem BioAssay (NCI)
